# Tested on: HCT116 MTAP KO
# measurement description: Cell proliferation inhibition (CellTiter Glo), HCT116 MTAP KO cells
# Type: cell-based
# test parameters: Homo sapiens, HCT-116, 144 h, cultured 6 days with compound
pIC50: −log10 of the molar value.
readout name: pIC50

- molecule: "CNC(N)=Nc1ccc(C(=O)N(Cc2ccc3c(cnn3C)c2)[C@H](C)c2ccccc2F)cn1"
  pIC50: 7.30
- molecule: "CNC(N)=Nc1ccc(C(=O)N(Cc2ccc(C(F)(F)F)cn2)c2cccc3nccnc23)cn1"
  pIC50: 7.60
- molecule: "CNC(N)=Nc1ccc(C(=O)N(Cc2ccc(C(F)(F)F)cn2)C(C)c2ccccc2)cn1 (stereo not drawn)"
  pIC50: 6.94

I: CNC(N)=Nc1ccc(C(=O)N(Cc2ccc(C(F)(F)F)cn2)[C@H]2CCc3ccccc32)cn1
II: CN/C(N)=N\c1ccc(C(=O)N(Cc2ccc(C(C)(F)F)cn2)[C@H](C)c2ccccc2F)cn1
Exercise: Min pIC50? I | II Use the label to indicate which entry you chose.
Solution: I
(I: 6.01, II: 7.49)
